biological target: T1, Aβ1-40 peptide; test: ELISA, nonbiotinylated peptide on plate; also: test concentration or dose not given here
T1 construct: synthetic peptide, not biotinylated; also called 1-40 (WT); beta amyloid 1-40
T1 sequence (peptide, as listed by the source): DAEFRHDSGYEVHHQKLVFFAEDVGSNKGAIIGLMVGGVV
Below is a list of entries, each paired with its recorded A450 ELISA value.
A number alone suffices; assume A450.

Recorded results for 5 binders are shown here.
- BINDER: "6G light chain variant 5B (Q94G) (antibody, V domains shown) VH: QVQLVQSGAEVKKPGASVKVSCKASGYTFTTYAIHWVRQAPGQGLEWMGFTSPYSGVSNYNQKFKGRVTMTRDTSTSTVYMELSSLRSEDTAVYYCARFDNYDRGYVRDYWGQGTLVTVS VL: DIVMTQSPDSLAVSLGERATINCRASESVDNDRISFLNWYQQKPGQPPKLLIYAATKQGTGVPDRFSGSGSGTDFTLTISSLQAEDVAVYYCQGSKEFPWSFGGGTKVEIKR"
  ENDPOINT_VALUE: 0.09
- BINDER: "6G heavy chain variant 4D (R104Q) (antibody, V domains shown) VH: QVQLVQSGAEVKKPGASVKVSCKASGYTFTTYAIHWVRQAPGQGLEWMGFTSPYSGVSNYNQKFKGRVTMTRDTSTSTVYMELSSLRSEDTAVYYCARFDNYDQGYVRDYWGQGTLVTVS VL: DIVMTQSPDSLAVSLGERATINCRASESVDNDRISFLNWYQQKPGQPPKLLIYAATKQGTGVPDRFSGSGSGTDFTLTISSLQAEDVAVYYCQQSKEFPWSFGGGTKVEIKR"
  ENDPOINT_VALUE: 2.45
- BINDER: "6G light chain variant 7E (Q94R) (antibody, V domains shown) VH: QVQLVQSGAEVKKPGASVKVSCKASGYTFTTYAIHWVRQAPGQGLEWMGFTSPYSGVSNYNQKFKGRVTMTRDTSTSTVYMELSSLRSEDTAVYYCARFDNYDRGYVRDYWGQGTLVTVS VL: DIVMTQSPDSLAVSLGERATINCRASESVDNDRISFLNWYQQKPGQPPKLLIYAATKQGTGVPDRFSGSGSGTDFTLTISSLQAEDVAVYYCQRSKEFPWSFGGGTKVEIKR"
  ENDPOINT_VALUE: 0.09
- BINDER: "6G heavy chain variant 11D (Y102M) (antibody, V domains shown) VH: QVQLVQSGAEVKKPGASVKVSCKASGYTFTTYAIHWVRQAPGQGLEWMGFTSPYSGVSNYNQKFKGRVTMTRDTSTSTVYMELSSLRSEDTAVYYCARFDNMDRGYVRDYWGQGTLVTVS VL: DIVMTQSPDSLAVSLGERATINCRASESVDNDRISFLNWYQQKPGQPPKLLIYAATKQGTGVPDRFSGSGSGTDFTLTISSLQAEDVAVYYCQQSKEFPWSFGGGTKVEIKR"
  ENDPOINT_VALUE: 0.29
- BINDER: "6G light chain variant 6C (E97G) (antibody, V domains shown) VH: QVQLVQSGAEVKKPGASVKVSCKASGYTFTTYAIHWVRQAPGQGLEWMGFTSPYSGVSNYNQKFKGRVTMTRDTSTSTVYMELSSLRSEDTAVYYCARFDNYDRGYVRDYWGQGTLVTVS VL: DIVMTQSPDSLAVSLGERATINCRASESVDNDRISFLNWYQQKPGQPPKLLIYAATKQGTGVPDRFSGSGSGTDFTLTISSLQAEDVAVYYCQQSKGFPWSFGGGTKVEIKR"
  ENDPOINT_VALUE: 0.05

Switching to the query record.
*Q* Fill blank: measured A450 ELISA of the binder 6G light chain variant 10E (S95L) (antibody, V domains shown) VH: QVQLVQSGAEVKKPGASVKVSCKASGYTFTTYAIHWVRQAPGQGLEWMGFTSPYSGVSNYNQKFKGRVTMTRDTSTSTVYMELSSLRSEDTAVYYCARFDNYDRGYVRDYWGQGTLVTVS VL: DIVMTQSPDSLAVSLGERATINCRASESVDNDRISFLNWYQQKPGQPPKLLIYAATKQGTGVPDRFSGSGSGTDFTLTISSLQAEDVAVYYCQQLKEFPWSFGGGTKVEIKR is ____.
*A* 0.08

Where do these numbers come from? They come from patent US20090022728A1.
